Numbers sourced from the supplement of paper PMC9170038.

apparent KD of MS2 coat protein values for the sequences below.
test system: MS2 coat protein; experiment: apparent KD of MS2 coat protein; higher = weaker reporter binding; details: Eterna round: R107; input ligand: none
State just the number; it will be interpreted in nM.

According to the records, this sequence AAGGUGAUCCGUGAUACCAGCUCAACAUGAGGAUCACCCAUGUAACGGACGAAAGUCCGGAGCCCUUGGCAGCACGGUUGCCAAG [(M)'-(Theo1)-(Ms2)-(Theo2)-(M'')-(T2)'_Design1b] displays apparent KD of MS2 coat protein of 127

According to the records, this sequence GCUGCCAUACGAAGGAGCGCUGCUGCGAUGUGGCGAACAUGAGGAUCACCCAUGUGGCAGCGGCAGGUAGGUCGCGUAUGGCAGC [#02 Exclusion - Arginine B] displays apparent KD of MS2 coat protein of 166

According to the records, this sequence CCGGUUAGGACGGCCGCCACUGUGGCUACGGUACAUGAGGAUCACCCAUGUUUGUGGUUGAUCUACAGGACCGGGUCCUGACACG [Eronri] displays apparent KD of MS2 coat protein of 247
